# Test system: synthetic hemozoin
# ASSAY_NAME: Depolymerization of synthetic hemozoin in vitro
# Type: biochemical
# STATED_CONDITIONS: Table 4; 50 mM test compound, acetate buffer pH 5.0, 37° C., 16 hours
Structures can show the parent of a compound that is named as a salt.
QUANTITY_KIND: % depol. hemoz. (%)
// return numeric value only (unit: %, not printed)

Below: 4 compounds and their reported % depol. hemoz..
C/C(=N\NC(=N)N)c1cccc(NC(=O)CCCC(=O)Nc2cccc(/C(C)=N/NC(=N)N)c2)c1 [dihydrochloride]    0
Cl.Cl.N=C(N)NN=C1CCC(=NNC(=N)N)CC1    0
CC(CCC1=C(CCC(C)=NNC(=N)N)C(=O)c2ccccc2C1=O)=NNC(=N)N.Cl.Cl    0.3
CC(CCC1=C(C)C(=O)c2ccccc2C1=O)=NNC(=N)N.Cl    0.1

Next up:
Value of measured % depol. hemoz. for the entry C/C(=N\NC(=O)CN(C)C)c1cccc(/C(C)=N/NC(=O)CN(C)C)n1.Cl.Cl : 0
